TARGET DESC: SnocOBP9WT (Sirex noctilio)
MEASUREMENT DESCRIPTION: Fluorescence competitive binding assay with 1-NPN probe, wild-type protein
EXPERIMENTAL READOUT: pKi
Numbers only, as −log10 of the molar value.

INSERT INTO results (compound, measured) VALUES
  ('C=C(C)[C@H]1CC=C(C)CC1 [(+)-Limonene]', 5.31);

Pending compound:
Dear colleague, please send me the reported pKi for C=C(C)[C@@H]1CC=C(C)CC1 [(−)-Limonene] when you can.
5.26

---

TARGET DESC: SnocOBP9WT (Sirex noctilio, UniProt A0A857N3E7)
Sequence (A0A857N3E7 entry or part of it): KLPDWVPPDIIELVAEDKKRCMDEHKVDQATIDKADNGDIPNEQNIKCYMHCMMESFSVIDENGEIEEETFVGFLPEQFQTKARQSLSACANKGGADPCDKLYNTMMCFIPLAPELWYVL
MEASUREMENT DESCRIPTION: Fluorescence competitive binding assay with 1-NPN probe, wild-type protein
TEST SETTINGS: protein and 1-NPN both 2 μM; ligand titrated to 1–20 μM; read-out: Ki
EXPERIMENTAL READOUT: Ki (µM)
Answers are plain numbers, in µM.

Dear colleague, please send me the reported Ki for CCCCCC/C=C\CCO [Z3D, (Z)-3-decen-ol] when you can.
1.53

---

TARGET DESC: SnocOBP9WT (Sirex noctilio)
MEASUREMENT DESCRIPTION: Fluorescence competitive binding assay with 1-NPN probe, wild-type protein
EXPERIMENTAL READOUT: IC50

Use these answered entries as a reference point.
INSERT INTO measurements (molecule, measured) VALUES
  ('CC(C)=CCC/C(C)=C/CO', '> 20 µM'),
  ('CCCCCC=O', '> 20 µM'),
  ('C=C(C)[C@@H]1CC=C(C)CC1 [(−)-Limonene]', '6.95 µM'),
  ('C=C1CCC2CC1C2(C)C (stereo not shown)', '> 20 µM'),
  ('C=CC(C)(O)CCC=C(C)C (stereo not shown)', '> 20 µM');

Provide reported IC50 for each item, in the same order as listed.
1. C=C(C)[C@H]1CC=C(C)CC1 [(+)-Limonene]
2. CC1=CCC2CC1C2(C)C (stereo not shown)

["6.09 µM", "> 20 µM"]

---

TARGET DESC: SnocOBP9L116A (Sirex noctilio, UniProt A0A857N3E7, L137A)
Sequence (A0A857N3E7 entry or part of it L137A): as the sequence (A0A857N3E7 entry or part of it) above, with L116A counted along it
MEASUREMENT DESCRIPTION: Fluorescence binding assay with 1-NPN probe, mutant L116A
EXPERIMENTAL READOUT: pKd
One number for each entry, as −log10 of the molar value.

Dear colleague, please send me the reported pKd for c1ccc(Nc2cccc3ccccc23)cc1 [1-NPN, N-phenyl-1-naphthylamine, reference compound] when you can.
4.76

---

TARGET DESC: SnocOBP9M54A (Sirex noctilio, UniProt A0A857N3E7, M75A)
Sequence (A0A857N3E7 entry or part of it M75A): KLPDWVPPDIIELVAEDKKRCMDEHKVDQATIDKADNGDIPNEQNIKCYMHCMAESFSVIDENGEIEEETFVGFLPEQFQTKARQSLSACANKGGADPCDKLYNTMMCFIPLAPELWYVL
MEASUREMENT DESCRIPTION: Fluorescence binding assay with 1-NPN probe, mutant M54A
EXPERIMENTAL READOUT: pKd
Give bare numbers, as −log10 of the molar value.

With SnocOBP9M54A (Sirex noctilio, UniProt A0A857N3E7, M75A) as the test system, provide measured pKd for this compound: c1ccc(Nc2cccc3ccccc23)cc1 [1-NPN, N-phenyl-1-naphthylamine, reference compound]
5.12

---

TARGET DESC: SnocOBP9F74A (Sirex noctilio, UniProt A0A857N3E7, F95A)
Sequence (A0A857N3E7 entry or part of it F95A): as the sequence (A0A857N3E7 entry or part of it) above, with F74A counted along it
MEASUREMENT DESCRIPTION: Fluorescence binding assay with 1-NPN probe, mutant F74A
Experimental: To measure the binding affinity of the ligand to recombinant SnocOBP9, 1-NPN was selected as a fluorescent probe. […] A multi-scan Spectrum Molecular Device Spectra Max i3 Fluorescence Spectrophotometer (Thermo Scientific, Wilmington, DE, USA) was used to conduct fluorescence competitive binding assays with an excitation wavelength of 337 nm. The emission spectra were recorded between 390 and 500 nm. […] The K1-NPN value was calculated by linearizing the curve using Scatchard plots. […]
EXPERIMENTAL READOUT: Kd (µM)
Give bare numbers, in µM.

Dear colleague, please send me the reported Kd for c1ccc(Nc2cccc3ccccc23)cc1 [1-NPN, N-phenyl-1-naphthylamine, reference compound] when you can.
18.4

---

TARGET DESC: UniProt:A0A857N3E7
EXPERIMENTAL READOUT: Kd
Note: state the figure and append the unit.

Dear colleague, please send me the reported Kd for c1ccc(Nc2cccc3ccccc23)cc1 [1-NPN, N-phenyl-1-naphthylamine, reference compound] when you can.
6.87 µM
